Source: ChEMBL document CHEMBL2331082

Biological target: Chorismatase (Streptomyces hygroscopicus subsp. ascomyceticus, UniProt Q9KID9)
Sequence (Q9KID9 whole entry): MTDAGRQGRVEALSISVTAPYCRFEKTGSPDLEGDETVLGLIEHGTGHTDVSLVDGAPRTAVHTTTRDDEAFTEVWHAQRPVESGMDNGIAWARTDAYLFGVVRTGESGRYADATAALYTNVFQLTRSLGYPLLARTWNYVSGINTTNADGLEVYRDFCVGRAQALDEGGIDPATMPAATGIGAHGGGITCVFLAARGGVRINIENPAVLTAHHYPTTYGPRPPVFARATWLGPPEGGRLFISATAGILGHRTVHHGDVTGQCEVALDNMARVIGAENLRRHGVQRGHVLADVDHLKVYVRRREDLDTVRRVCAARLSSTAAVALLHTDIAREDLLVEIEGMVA
Assay: Competitive inhibition of Streptomyces hygroscopicus subsp. ascomyceticus chorismatase FkbO expressed in Escherichia coli BL21(DE3) using chorismate as substrate
READOUT TYPE: Ki (mM)
Just the number in mM, nothing appended.

Prompt line: Annotate the molecule O=C(O)/C=C/c1cccc(C(=O)O)c1 with its measured Ki.
Response line: 19.6
